Reference source for all entries: ChEMBL document CHEMBL3603825

# Ki per entry for D(3) dopamine receptor (Homo sapiens, UniProt P35462)
recorded metric: Ki (nM)

P = O=C(CCCCN1CCN(c2ccc(Cl)cc2Cl)CC1)Nc1nc2ccccc2s1
Q = O=C(CCCCN1CCN(c2ccccc2F)CC1)Nc1nc2ccccc2s1
Req: Compare Ki: is it lower for P or for Q ? # respond with the chosen item's label
Resp: Q

---

- measurement target: D(2) dopamine receptor (Homo sapiens)
- Sequence (P14416 whole entry): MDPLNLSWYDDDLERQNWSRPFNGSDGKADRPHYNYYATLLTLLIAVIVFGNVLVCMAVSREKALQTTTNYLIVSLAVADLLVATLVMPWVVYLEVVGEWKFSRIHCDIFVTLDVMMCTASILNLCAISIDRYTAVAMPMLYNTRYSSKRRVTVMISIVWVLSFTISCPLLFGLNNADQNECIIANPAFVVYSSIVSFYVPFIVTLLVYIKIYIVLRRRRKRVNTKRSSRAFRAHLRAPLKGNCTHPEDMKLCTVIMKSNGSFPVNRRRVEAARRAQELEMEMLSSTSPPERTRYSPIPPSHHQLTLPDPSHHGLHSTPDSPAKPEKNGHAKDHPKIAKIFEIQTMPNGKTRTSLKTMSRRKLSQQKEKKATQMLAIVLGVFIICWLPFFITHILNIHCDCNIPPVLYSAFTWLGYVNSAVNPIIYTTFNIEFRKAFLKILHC
- assay overview: Displacement of [3H]-sulpiride from human dopamine D2 receptor expressed in HEK293 cells after 150 mins by liquid scintillation counting
recorded metric: Ki (nM)

compound structure: O=C(CCCCN1CCN(c2ccccc2F)CC1)Nc1nc2ccccc2s1
value observed: 175

P = COc1ccc2nc(NC(=O)CCCCN3CCN(c4ccc(Cl)cc4)CC3)sc2c1
Q = O=C(CCCCN1CCN(c2ccc(Cl)cc2Cl)CC1)Nc1nc2ccccc2s1
Req: Which of the two gives a bigger number for Ki: P or Q ? # respond with the chosen item's label
Resp: Q
(Q: 5590 nM, P: 197 nM)

---

- measurement target: UniProt:P14416
- assay overview: Displacement of [3H]-sulpiride from human dopamine D2 receptor expressed in HEK293 cells at 100 nM after 150 mins by liquid scintillation counting
- Type: cell-based
recorded metric: inhibition (%)

As a guide, the following entries are already answered.
compound structure: O=C(CCCCN1CCN(c2ccc(Cl)cc2)CC1)Nc1nc2ccccc2o1
measurement target: UniProt:P14416
measurement units: %
inhibition: 40.9
//
compound structure: O=C(CCCCN1CCN(c2ccc(Cl)cc2)CC1)Nc1nc2ccccc2[nH]1
measurement target: UniProt:P14416
measurement units: %
inhibition: 29.9
//
compound structure: Cc1ccc2nc(NC(=O)CCCCN3CCN(c4ccc(Cl)cc4)CC3)sc2c1
measurement target: UniProt:P14416
measurement units: %
inhibition: 1
//
compound structure: O=C(CCCCN1CCN(c2ccc(Cl)cc2)CC1)Nc1nc2ccccc2s1
measurement target: UniProt:P14416
measurement units: %
inhibition: 57.3

I = O=C(CCCCN1CCN(c2ccc(Cl)cc2)CC1)Nc1nc2ccc([N+](=O)[O-])cc2s1
II = O=C(CCCCN1CCN(c2ccc(Cl)cc2)CC1)Nc1nc2cc(Cl)ccc2o1
Req: Which of the two gives a bigger number for inhibition: I or II ? # respond with the chosen item's label
Resp: I
